Target: Voltage-dependent T-type calcium channel subunit alpha-1G (Homo sapiens, UniProt O43497)
Sequence (O43497 whole entry): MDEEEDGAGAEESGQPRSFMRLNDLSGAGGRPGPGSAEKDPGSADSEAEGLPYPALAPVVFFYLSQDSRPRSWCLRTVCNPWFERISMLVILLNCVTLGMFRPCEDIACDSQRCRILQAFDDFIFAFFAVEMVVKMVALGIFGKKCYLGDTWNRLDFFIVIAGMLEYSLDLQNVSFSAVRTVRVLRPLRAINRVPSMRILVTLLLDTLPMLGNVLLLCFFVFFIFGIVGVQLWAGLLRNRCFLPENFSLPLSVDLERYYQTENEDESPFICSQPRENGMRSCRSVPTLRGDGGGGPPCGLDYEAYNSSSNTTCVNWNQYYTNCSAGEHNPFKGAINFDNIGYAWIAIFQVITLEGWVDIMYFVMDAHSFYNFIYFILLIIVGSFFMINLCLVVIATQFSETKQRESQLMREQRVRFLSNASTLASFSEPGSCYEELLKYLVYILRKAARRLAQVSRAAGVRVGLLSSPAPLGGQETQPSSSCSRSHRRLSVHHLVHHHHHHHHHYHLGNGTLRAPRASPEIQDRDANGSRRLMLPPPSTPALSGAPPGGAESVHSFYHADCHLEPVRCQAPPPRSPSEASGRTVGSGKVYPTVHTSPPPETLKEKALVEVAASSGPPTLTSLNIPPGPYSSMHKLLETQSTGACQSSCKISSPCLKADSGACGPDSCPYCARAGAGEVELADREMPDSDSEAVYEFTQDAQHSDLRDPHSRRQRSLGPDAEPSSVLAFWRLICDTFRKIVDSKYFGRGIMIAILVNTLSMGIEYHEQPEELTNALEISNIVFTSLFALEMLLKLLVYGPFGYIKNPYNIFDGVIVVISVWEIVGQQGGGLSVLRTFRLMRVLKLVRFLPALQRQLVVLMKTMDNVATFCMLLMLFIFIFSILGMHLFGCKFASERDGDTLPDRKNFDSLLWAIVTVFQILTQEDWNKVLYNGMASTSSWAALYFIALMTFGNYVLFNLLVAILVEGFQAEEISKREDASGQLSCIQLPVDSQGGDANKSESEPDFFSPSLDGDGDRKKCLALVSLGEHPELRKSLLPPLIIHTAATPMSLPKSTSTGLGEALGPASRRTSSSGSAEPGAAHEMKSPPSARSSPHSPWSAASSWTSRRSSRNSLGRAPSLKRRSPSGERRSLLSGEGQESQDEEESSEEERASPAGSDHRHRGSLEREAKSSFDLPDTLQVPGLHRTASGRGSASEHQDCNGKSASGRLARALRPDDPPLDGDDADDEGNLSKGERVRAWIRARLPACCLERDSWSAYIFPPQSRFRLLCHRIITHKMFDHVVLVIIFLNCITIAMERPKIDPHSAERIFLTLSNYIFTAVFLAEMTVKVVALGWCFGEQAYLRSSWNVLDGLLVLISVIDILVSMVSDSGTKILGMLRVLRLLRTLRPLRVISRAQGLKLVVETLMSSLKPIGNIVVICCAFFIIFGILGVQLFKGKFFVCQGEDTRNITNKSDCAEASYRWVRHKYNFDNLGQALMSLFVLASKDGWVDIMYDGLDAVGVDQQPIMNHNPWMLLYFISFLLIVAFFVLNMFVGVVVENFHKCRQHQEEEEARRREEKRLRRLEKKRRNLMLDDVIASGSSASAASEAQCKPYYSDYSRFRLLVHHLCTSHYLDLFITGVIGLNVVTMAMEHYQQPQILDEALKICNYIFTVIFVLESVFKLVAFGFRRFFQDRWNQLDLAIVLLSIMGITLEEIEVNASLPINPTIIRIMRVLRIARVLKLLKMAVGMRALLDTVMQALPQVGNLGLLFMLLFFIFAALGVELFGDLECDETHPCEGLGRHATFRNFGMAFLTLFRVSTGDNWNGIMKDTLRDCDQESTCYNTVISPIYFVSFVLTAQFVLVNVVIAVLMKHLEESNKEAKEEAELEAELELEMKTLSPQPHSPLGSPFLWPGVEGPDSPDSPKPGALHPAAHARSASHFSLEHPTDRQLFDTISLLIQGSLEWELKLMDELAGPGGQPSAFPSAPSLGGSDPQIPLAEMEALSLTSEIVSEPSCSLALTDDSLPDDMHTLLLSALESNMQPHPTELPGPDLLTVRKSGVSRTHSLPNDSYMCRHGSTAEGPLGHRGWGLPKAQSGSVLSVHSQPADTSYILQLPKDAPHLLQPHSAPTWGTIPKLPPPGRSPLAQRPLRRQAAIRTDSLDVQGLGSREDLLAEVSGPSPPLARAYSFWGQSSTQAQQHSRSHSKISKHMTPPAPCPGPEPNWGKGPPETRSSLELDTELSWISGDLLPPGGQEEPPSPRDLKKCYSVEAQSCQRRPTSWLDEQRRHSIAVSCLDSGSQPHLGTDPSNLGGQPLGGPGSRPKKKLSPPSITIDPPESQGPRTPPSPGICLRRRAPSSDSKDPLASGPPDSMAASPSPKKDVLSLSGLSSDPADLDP
Experiment: Inhibition of alpha-1G calcium channel in human HEK293 cells by whole-cell patch-clamp method
// classify: if (IC50 < 1000 nM) met else not met

Example entries begin here.
[
  {
    "record.smiles": "O[C@H](COc1ccc(Cl)cc1)CN1CCN(Cc2ccc(Cl)cc2)CC1",
    "category.label": "not met"
  },
  {
    "record.smiles": "O[C@H](COc1ccc(F)cc1)CN1CCN(Cc2ccc(Cl)c(Cl)c2)CC1",
    "category.label": "met"
  },
  {
    "record.smiles": "O[C@H](COc1ccc(F)cc1)CN1CCN(Cc2c(F)cccc2Cl)CC1",
    "category.label": "not met"
  }
]

Query block: Does the reported IC50 of the following compound sit strictly below 1000 nM? `O[C@H](COc1ccc(C(F)(F)F)cc1)CN1CCN(Cc2c(F)cccc2Cl)CC1`
Result block: met

Query block: State whether 1000 nM exceeds IC50 recorded for `O[C@@H](COc1ccc(C(F)(F)F)cc1)CN1CCN(Cc2ccc(Cl)c(Cl)c2)CC1` .
Result block: not met

Query block: I wonder whether `COc1cccc(N2CCN(C[C@H](O)COc3ccc(C(F)(F)F)cc3)CC2)c1` has IC50 below 1000 nM. Can you tell?
Result block: met

Query block: Report whether reported IC50 is lower than 1000 nM (strictly) for `O[C@@H](COc1ccc(F)cc1)CN1CCN(Cc2ccc(Cl)c(Cl)c2)CC1`
Result block: met

Data credit: ChEMBL document CHEMBL2331236
